ASSAY TARGET: JARID1B (Homo sapiens)
Construct: The FLAG tagged full length JARID1B enzyme was expressed in Sf21 insect cells using FLAG-JARID1B baculoviruses; FLAG (N); made in house; host or cells: Sf21 insect cells (baculovirus)
Sequence (Q9UGL1 whole entry): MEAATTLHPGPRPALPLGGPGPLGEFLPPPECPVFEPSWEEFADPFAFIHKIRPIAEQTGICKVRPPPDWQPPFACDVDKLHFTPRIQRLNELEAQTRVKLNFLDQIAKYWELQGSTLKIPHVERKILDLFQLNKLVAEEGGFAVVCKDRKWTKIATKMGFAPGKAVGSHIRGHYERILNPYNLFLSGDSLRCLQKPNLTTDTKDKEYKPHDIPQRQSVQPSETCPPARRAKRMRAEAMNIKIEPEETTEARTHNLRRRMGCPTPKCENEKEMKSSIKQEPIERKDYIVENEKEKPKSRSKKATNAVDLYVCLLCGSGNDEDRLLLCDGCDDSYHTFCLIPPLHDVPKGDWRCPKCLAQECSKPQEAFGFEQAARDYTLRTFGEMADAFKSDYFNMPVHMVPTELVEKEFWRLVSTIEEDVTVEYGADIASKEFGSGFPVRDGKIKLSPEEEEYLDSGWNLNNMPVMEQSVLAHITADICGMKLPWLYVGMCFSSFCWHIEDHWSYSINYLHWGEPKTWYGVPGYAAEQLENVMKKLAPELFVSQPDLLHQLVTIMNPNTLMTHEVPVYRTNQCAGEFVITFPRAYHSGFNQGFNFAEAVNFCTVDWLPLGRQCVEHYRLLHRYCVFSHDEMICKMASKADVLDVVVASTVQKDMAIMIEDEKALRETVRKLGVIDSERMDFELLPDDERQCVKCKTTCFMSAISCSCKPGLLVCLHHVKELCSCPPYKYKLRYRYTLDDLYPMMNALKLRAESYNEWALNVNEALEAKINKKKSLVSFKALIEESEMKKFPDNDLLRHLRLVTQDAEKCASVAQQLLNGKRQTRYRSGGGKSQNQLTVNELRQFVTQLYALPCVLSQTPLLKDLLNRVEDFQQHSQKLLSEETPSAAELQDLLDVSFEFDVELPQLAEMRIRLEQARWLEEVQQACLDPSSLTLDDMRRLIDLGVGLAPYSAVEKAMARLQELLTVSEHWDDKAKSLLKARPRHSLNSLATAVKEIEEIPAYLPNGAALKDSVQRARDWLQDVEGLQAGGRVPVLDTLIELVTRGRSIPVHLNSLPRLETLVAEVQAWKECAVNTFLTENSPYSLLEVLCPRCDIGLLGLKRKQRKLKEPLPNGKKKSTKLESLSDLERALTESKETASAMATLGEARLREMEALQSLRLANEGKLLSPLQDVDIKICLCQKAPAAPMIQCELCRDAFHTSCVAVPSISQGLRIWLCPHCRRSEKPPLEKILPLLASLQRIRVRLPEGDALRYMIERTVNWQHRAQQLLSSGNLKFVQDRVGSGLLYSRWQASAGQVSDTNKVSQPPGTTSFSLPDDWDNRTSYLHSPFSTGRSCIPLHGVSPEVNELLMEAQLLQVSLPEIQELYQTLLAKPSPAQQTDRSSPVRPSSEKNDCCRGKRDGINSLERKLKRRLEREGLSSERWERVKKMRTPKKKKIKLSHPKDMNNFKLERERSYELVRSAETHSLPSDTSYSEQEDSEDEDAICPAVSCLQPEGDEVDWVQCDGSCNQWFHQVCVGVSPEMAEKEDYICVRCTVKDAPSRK
PROTOCOL SUMMARY: FLAG-JARID1B histone demethylase assay with AlphaScreen detection (HTS and dose response);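 note: FLAG-tagged JARID1B at 4 nM acting on a biotinylated H3K4me3 peptide, demethylation read by AlphaScreen luminescence, with hits checked against bio-H3K4me2 without enzyme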;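 note: compound tested at 20 µM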
Assay type: biochemical
SETTINGS: assay signal minus artifact signal
Structures can show the parent of a compound that is named as a salt.
PROPERTY LABEL: Assay − Artifact Signal (percent) (%)
Response body: numeric value in %, unit text excluded.

>  <COMPOUND>
OC1CCCCC1N1CCC(c2ccccc2)CC1 (centres unmarked) [YU034447, VESAMICOL HYDROCHLORIDE, reference compound]

>  <UNIT SYMBOL>
%

>  <Assay − Artifact Signal (percent)>
8.85

$$$$
>  <COMPOUND>
C/C1=C2/[N-][C@H]([C@H](CC(N)=O)[C@@]2(C)CCC(=O)NC[C@@H](C)OP(=O)([O-])O[C@H]2[C@@H](O)[C@@H](n3cnc4cc(C)c(C)cc43)O[C@@H]2CO)[C@]2(C)N=C(/C(C)=C3N=C(/C=C4N=C1[C@@H](CCC(N)=O)C\4(C)C)[C@@H](CCC(N)=O)[C@]\3(C)CC(N)=O)[C@@H](CCC(N)=O)[C@]2(C)CC(N)=O.[Co] [YU034137, COBALAMINE, reference compound]

>  <UNIT SYMBOL>
%

>  <Assay − Artifact Signal (percent)>
28.34

$$$$
>  <COMPOUND>
O=C(NC1=NC(=O)C(F)(C(F)(F)F)S1)NC1CCCCC1 (centres unmarked) [YU153281]

>  <UNIT SYMBOL>
%

>  <Assay − Artifact Signal (percent)>
23.51

$$$$
>  <COMPOUND>
CN(C)C(=S)SSC(=S)N(C)C [YU034426, THIRAM, reference compound]

>  <UNIT SYMBOL>
%

>  <Assay − Artifact Signal (percent)>
59.23

$$$$
>  <COMPOUND>
CCOC(=O)C(CCOc1cccc(CC)c1)C(=O)OCC [YU151071]

>  <UNIT SYMBOL>
%

>  <Assay − Artifact Signal (percent)>
9.86

$$$$

Task: # return recorded Assay − Artifact Signal (percent) for entry Cc1cc(OCc2nc3ccccc3s2)ccc1N [YU147615]
Output: 13.88

Task: Read off the recorded Assay − Artifact Signal (percent) for Nc1nc2nc[nH]c2c(=S)[nH]1 [YU034024, THIOGUANINE, reference compound]
Output: 36.52

Task: Retrieve Assay − Artifact Signal (percent) measured for Cc1cccc(NC(c2ccccn2)c2ccc3cccnc3c2O)n1 (centres unmarked) [YU172178] and print it.
Output: 8.53

Task: State its Assay − Artifact Signal (percent) for this compound: Cc1cccc(NC(c2cccnc2)c2ccc3cccnc3c2O)n1 (centres unmarked) [YU172179]
Output: 10.43

Task: Return the recorded Assay − Artifact Signal (percent) value; entry: Cc1noc2c1C(c1ccc(O)c(O)c1)C1=C(CCCC1=O)N2 (centres unmarked) [YU183529]
Output: 36.06

Task: Give reported Assay − Artifact Signal (percent) value for CN(C)[C@@H]1C(O)=C(C(N)=O)C(=O)[C@@]2(O)C(O)=C3C(=O)c4c(O)ccc(Cl)c4[C@@](C)(O)[C@H]3C[C@@H]12 [YU033743, AUREOMYCIN, reference compound]
Output: 27.81

Task: Provide one value: measured Assay − Artifact Signal (percent) of O=C(O)c1ccnc(C(=O)O)c1 [YU221215, 2,4-Pyridinedicarboxylic Acid, reference compound]
Output: 96.69

Task: Look up and report measured Assay − Artifact Signal (percent) for this entry: COc1ccccc1OCc1nnc(S)n1C [YU146471]
Output: 47.93

Task: Answer with reported Assay − Artifact Signal (percent) of C[C@@H]1O[C@@H](OC[C@H]2OC(OC3=C(c4ccc(O)c(O)c4)Oc4cc(O)cc(O)c4C3O)[C@H](O)[C@@H](O)[C@@H]2O)[C@H](O)[C@H](O)[C@H]1O (some centres unmarked) [YU033654, RUTOSIDE (rutin), reference compound]
Output: 52.71
